The reported measurements were obtained from PubChem BioAssay AID1159580.

# PROTOCOL_TEXT: chemical genetic growth profiling, strain panel (AID 1159580);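 note: tested at 20 µM; growth read once vehicle control cultures reached saturation at 30 °C; 1 = growth at the plate median or of vehicle wells; lower values mean less growth of the strain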
# MEASUREMENT_CONTEXT: S. cerevisiae deletion strains, growth OD, locus YMR129W, stronger effect = lower value
Among all 5,500 compounds or so, about 2,000 (36%) were called active. Not shown: some 18% with an inconclusive outcome. The list shows a part of the results.
METRIC: normalized growth

These recorded examples may help you get a feel for the data.
[[record]]
compound = "CC(=O)O[C@H]1CC[C@@]2(C)C(C[C@@H](OC(C)=O)[C@@]3(C)C4=CC(=O)O[C@@H](c5ccoc5)[C@]4(C)CCC23)C1(C)C (some centres not stated)"
metric = "normalized growth"
value_reported = "1 (inactive)"

[[record]]
compound = "CC(=O)OCC(=O)[C@@]1(O)[C@H](C)CC2C3CCC4=CC(=O)C=C[C@]4(C)[C@@]3(F)[C@@H](O)C[C@@]21C (some centres not stated)"
metric = "normalized growth"
value_reported = "0.988 (inactive)"

[[record]]
compound = "O=C(O)c1ccc(S(=O)(=O)N(Cl)Cl)cc1"
metric = "normalized growth"
value_reported = "0.984 (inactive)"


Consider CC(C)c1ccc2c(c1)CCC1[C@](C)(CN)CCC[C@]21C (some centres not stated) . Its measured normalized growth is 1.01 (inactive)

Consider CC(C)c1ccc2c(c1)CCC1C(C)(C(N)=O)CCCC21C (configuration not stated) . Its measured normalized growth is 0.952 (inactive)

Consider CC(C)(C)NCC(O)c1ccc(O)c(CO)c1 (configuration not stated) . Its measured normalized growth is 1.01 (inactive)

Consider CC(=O)N[C@@H](Cc1c[nH]c2ccccc12)C(N)=O . Its measured normalized growth is 1.02 (inactive)

----------
# PROTOCOL_TEXT: chemical genetic growth profiling, strain panel (AID 1159580)
# MEASUREMENT_CONTEXT: S. cerevisiae deletion strains, growth OD, locus YLL001W, strain dnm1, stronger effect = lower value
The campaign covered roughly 5,500 compounds. About 2,000 (36%) were called active. Not shown: some 18% with an inconclusive outcome. The list shows a part of the results.
METRIC: normalized growth
A bare number is all that is needed in reply.

[[record]]
compound = "CC(=O)Oc1cccc(O)c1"
value_reported = 1.02


Consider CC(N=C(NC#N)Nc1ccncc1)C(C)(C)C (stereo unspecified) . Its measured normalized growth is 0.956

Consider CC(CCC(=O)O)[C@H]1CCC2C3CC[C@@H]4C[C@H](O)CC[C@]4(C)C3C=C[C@@]21C (stereo partly specified) . Its measured normalized growth is 1

Consider COc1ccccc1OCC(O)CO (stereo unspecified) . Its measured normalized growth is 1.02

Consider CN[C@@H]1[C@H](O)[C@H](NC)[C@H]2O[C@@]3(O)C(=O)C[C@@H](C)O[C@H]3O[C@@H]2[C@H]1O . Its measured normalized growth is 1.02

Consider CC(=O)N[C@@H](Cc1c[nH]c2ccccc12)C(N)=O . Its measured normalized growth is 1.03

Consider COC(=O)c1c(C)c2c(c(C)c1O)OC(=O)c1c(C)c(Cl)c(O)c(Cl)c1O2 . Its measured normalized growth is 0.959

Consider CC(C)C[C@@H](CN)CC(=O)O . Its measured normalized growth is 0.995

Consider Nc1ccc(C(=O)O)cc1 . Its measured normalized growth is 1.03

Consider CCCc1cc(=O)[nH]c(=S)[nH]1 . Its measured normalized growth is 1.01

Consider COc1cc(C/C=C/c2ccccc2)c(OC)cc1O . Its measured normalized growth is 0.926

----------
# PROTOCOL_TEXT: chemical genetic growth profiling, strain panel (AID 1159580)
# MEASUREMENT_CONTEXT: S. cerevisiae deletion strains, growth OD, locus YDL185W, strain tfp1, stronger effect = lower value
Hit rate of the full screen: of about 5,500 compounds, about 2,000 (36%) were called active. Another 18% or so got no clear call; they are omitted. This is one part of the list.
METRIC: normalized growth

[[record]]
compound = "CC(=O)O[C@@H]1CC[C@@]2(C)C(C[C@@H](OC(C)=O)[C@@]3(C)C4=CC(=O)O[C@@H](c5ccoc5)[C@]4(C)CCC23)C1(C)C (stereo partly drawn)"
metric = "normalized growth"
value_reported = "0.996 (inactive)"


Consider CC(=O)O[C@H]1CCC2(C)C3=C(CCC2C1(C)C)[C@@]1(C)CC[C@@H](C(C)CCC=C(C)C)[C@]1(C)CC3 (stereo partly drawn) . Its measured normalized growth is 1.05 (inactive)

Consider NCCCCCCNS(=O)(=O)c1cccc2c(Cl)cccc12 . Its measured normalized growth is 0.986 (inactive)

----------
# PROTOCOL_TEXT: chemical genetic growth profiling, strain panel (AID 1159580)
# MEASUREMENT_CONTEXT: S. cerevisiae deletion strains, growth OD, locus YKR001C, strain vps1, stronger effect = lower value
Out of some 5,500 compounds screened, about 2,000 (36%) were called active. Roughly 18% stayed inconclusive and do not appear here. This is one part of the list.
METRIC: normalized growth
A bare number is all that is needed in reply.

These recorded examples may help you get a feel for the data.
[[record]]
compound = "COC(=O)c1c(OC)cc2c(c1C)Oc1c(Cl)c(OC(C)=O)c(Cl)c(C)c1C(=O)O2"
metric = "normalized growth"
value_reported = 1.04

[[record]]
compound = "COC(=O)c1c(C)c2c(c(C)c1OC)OC(=O)c1c(C)c(Cl)c(OC)c(Cl)c1O2"
metric = "normalized growth"
value_reported = 1.01


Note: attention shifts to another entry.
Consider CO[C@H]1CC(O[C@@H]2/C(C)=C/C[C@@H]3C[C@@H](C[C@]4(CC[C@H](C)[C@@H](C5CCCCC5)O4)O3)OC(=O)[C@@H]3C=C(C)/C(=N\O)[C@H]4OC/C(=C\C=C\[C@@H]2C)[C@]43O)O[C@@H](C)C1O (stereo partly drawn) . Its measured normalized growth is 0.745

----------
Measured normalized growth, listed per entry for reference.
# PROTOCOL_TEXT: chemical genetic growth profiling, strain panel (AID 1159580);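 note: tested at 20 µM; growth read once vehicle control cultures reached saturation at 30 °C; 1 = growth at the plate median or of vehicle wells; lower values mean less growth of the strain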
# MEASUREMENT_CONTEXT: S. cerevisiae deletion strains, growth OD, locus YMR205C, strain PFK2, stronger effect = lower value
The campaign covered roughly 5,500 compounds. About 2,000 (36%) were called active. About 18% were inconclusive and are not listed. Some of the results follow.
A bare number is all that is needed in reply.

These recorded examples may help you get a feel for the data.
[[record]]
chemical_smiles = "O=C(O)c1ccc(S(=O)(=O)N(Cl)Cl)cc1"
value_reported = 1.04

[[record]]
chemical_smiles = "O=C(O)C1=CCCNC1"
value_reported = 1.01


Note: attention shifts to another entry.
Consider CN(C)C(=O)Oc1cccc([N+](C)(C)C)c1 . Its measured normalized growth is 0.994

----------
# PROTOCOL_TEXT: chemical genetic growth profiling, strain panel (AID 1159580);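 note: tested at 20 µM; growth read once vehicle control cultures reached saturation at 30 °C; 1 = growth at the plate median or of vehicle wells; lower values mean less growth of the strain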
# MEASUREMENT_CONTEXT: S. cerevisiae deletion strains, growth OD, locus YOR069W, strain VPS5
The campaign covered roughly 5,500 compounds. About 2,000 (36%) were called active. Not shown: some 18% with an inconclusive outcome. Cut-off read from the data, not from the text of the source: active = normalized growth mostly below about 0.91 (no sharp cut-off); inconclusive = no clear call, values can overlap the other calls; inactive = mostly above about 0.92. Some of the results follow.
Valid outcomes are listed here; reply with one: Yes (active), No (inactive)

Solved cases (2 shown):
[[record]]
chemical_smiles = "NS(=O)(=O)c1cc2c(cc1Cl)NC(CSCc1ccccc1)=NS2(=O)=O"
label_class = "No"

[[record]]
chemical_smiles = "CC(=O)Oc1ccc(C(c2ccc(OC(C)=O)cc2)c2ccccn2)cc1"
label_class = "No"


Moving on to another molecule below.
Kindly provide the recorded test outcome for the following molecule: C=C1C[C@]23C[C@@]1(O)CC[C@H]2[C@@]12C=C[C@H](O)[C@@](C)(C(=O)O1)[C@H]2[C@@H]3C(=O)O
No

----------
# PROTOCOL_TEXT: chemical genetic growth profiling, strain panel (AID 1159580);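 note: tested at 20 µM; growth read once vehicle control cultures reached saturation at 30 °C; 1 = growth at the plate median or of vehicle wells; lower values mean less growth of the strain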
# MEASUREMENT_CONTEXT: S. cerevisiae deletion strains, growth OD, locus YLR371W, strain rom2, stronger effect = lower value
Among all 5,500 compounds or so, about 2,000 (36%) were called active. Inconclusive results (about 18%) are left out. Some of the results follow.
Measured normalized growth, listed per entry for reference.
A bare number is all that is needed in reply.

[[record]]
chemical_smiles = "O=C(O)c1cc(O)c2c(c1)[C@@H]([C@H]1c3cc(C(=O)O)cc(O)c3C(=O)c3c(O[C@H]4O[C@H](CO)[C@@H](O)[C@H](O)[C@H]4O)cccc31)c1cccc(O[C@H]3O[C@H](CO)[C@@H](O)[C@H](O)[C@H]3O)c1C2=O"
value_reported = 0.999


Consider Cc1cc(=O)oc2cc(O)c(O)cc12 . Its measured normalized growth is 1

Consider OC[C@H]1O[C@@H](O[C@H]2[C@H](O)[C@@H](O)[C@@H](O)O[C@@H]2CO)[C@H](O)[C@@H](O)[C@@H]1O . Its measured normalized growth is 1.01

Consider OC[C@H]1O[C@@](CO)(O[C@@H]2O[C@H](CO)[C@@H](O)[C@H](O)[C@H]2O)[C@@H](O[C@@H]2O[C@H](CO)[C@@H](O)[C@H](O)[C@H]2O)[C@@H]1O . Its measured normalized growth is 0.999
